- target: PfENR (Plasmodium falciparum)
- experimentNotes: PfENR continuous inhibition assay
- Assay type: biochemical
- experimentalContext: IC50, PfENR inhibition, in the presence of 0.01% Triton-X

- compound: "CC1=C(O)C(=O)C=C2C1=CC=C1[C@@]2(C)CC[C@@]2(C)[C@@H]3C[C@](C)(C(=O)O)CC[C@]3(C)CC[C@]12C [compound 1, celastrol]"
  target: "PfENR (Plasmodium falciparum)"
  IC50 [µM]: 3.4

---

- experimentNotes: Solubility under assay conditions
- Format: physicochemical
- experimentalContext: PfENR assay reaction mixture

- molecule: "CC[C@@]1(O)C[C@H](O[C@H]2C[C@H](N(C)C)[C@H](O[C@H]3C[C@H](O)[C@H](O[C@H]4CCC(=O)[C@H](C)O4)[C@H](C)O3)[C@H](C)O2)c2c(cc3c(c2O)C(=O)c2c(O)cccc2C3=O)[C@H]1C(=O)OC [compound 2, aclacinomycin A (aclarubicin)]"
  solubility: "≤ 25 µM"
